TEST_TARGET: T1, human APRIL protein (human, UniProt O75888 105-250, limits assumed)
T1 construct: Bought protein; also called recombinant APRIL protein
T1 sequence (looked up): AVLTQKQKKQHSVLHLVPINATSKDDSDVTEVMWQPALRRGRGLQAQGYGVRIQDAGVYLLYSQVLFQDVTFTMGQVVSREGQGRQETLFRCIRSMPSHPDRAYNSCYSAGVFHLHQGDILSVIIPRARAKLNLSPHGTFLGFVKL
PROCEDURE_SUMMARY: ELISA, coated APRIL; antibody 0.0213 nM
QUANTITY_MEASURED: OD450 nm
Write the number on its own, no unit after it.

78C11D2D12 (antibody, V domains shown, Mouse hybridoma antibody purified on Protein G) VH: QVQLQQSGAELVRPGTSVKISCKASGYAFTNYWLGWVKQRPGHGLEWIGDIYPGSGNTYYNEKFKGKATLTADKSSSTAYMQLSSLTSEDSAVFFCAAYLYAMDYWGQGTSVTVSS VL: QIVLTQSPAIMSASPGEKVTITCSASSSVSYMHWFQQKPGTSPKLWIYSASNLASGVPARFSGSGSGTSYSLTISRMEAEDAATYYCQQRGSYPFTFGSGTKLEIK: 0.0534

## Task Item under review: 20D1B6E9E5 (antibody, V domains shown) VH: EVQLQQSVAELVRPGASVKLSCTASDFNIKNTYIHWVKQRPEQGLEWIGRIDPVNGNTKYAPKFQDKATIIVDTYSNTAYLQLSSLASEDTAVYYCARWPITTIVATDWYFDVWGTGTTVTVSS VL: DVLMTQTQLALPVRLGEQASISCRSSQSIVNSNGNTYLEWYLQKPGQSPKLLIYKVSNRFSGVPDRFSGSGSGTDFTLKISRVEAEDLGVYYCFQGSHVPWTFGGGTKLEIK . Reported OD450 nm?
## Result 0.0546
